B1: SMOC2 (parent)
chain: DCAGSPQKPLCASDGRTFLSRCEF

variants of: B1; experiment: protein stability index of a GFP-peptide fusion (GPS, HEK-293T) (PSI 1-6); higher = more stable; details: c terminus: a fixed tail appended;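 further: lentivirally expressed fusions sorted by FACS into six bins by GFP to DsRed ratio, PSI derived from sequencing read proportions per bin multiplied by bin number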
ASSAY_READOUT: protein stability index
Field format: numeric only.

Take a look at these entries with their results.
• S13G = 2.08
• P9Y = 2.47
• D14E = 2.54
• C22P = 3.95

### Prompt Report protein stability index for `Q7V` please.
### Response 2.39

### Prompt Report protein stability index for `D1F` please.
### Response 1.5

### Prompt Report protein stability index for `R16D` please.
### Response 4.12

Numbers sourced from the supplement of paper PMC10567573.
